# Test system: F culmorum
# assay remarks: Specific antifungal activity of Rs-AFP2 isoforms in SMF− and SMF+ media
# Format: cell-based
# Set-up: unit not given here
# assay conditions: 72 hours growth; high salt medium (1 mM CaCl2, 50 mM KCl); triplicate
readout kind: IC50 SMF+
Lab note: record the figure alone, no unit after it.

Exercise: F culmorum / IC50 SMF+ / yRs-AFP2/Q5M: yeast-expressed Rs-AFP2 isoform, position 5 glutamine to methionine (QKLCMRPSGTWSGVCGNNNACKNQCIRLEKARHGSCNYVFPAHKCICYFPC; listed as Raphanus sativus) : value?
Solution: 5.4

Exercise: F culmorum / IC50 SMF+ / yRs-AFP2/G9R: yeast-expressed Rs-AFP2 isoform, position 9 glycine to arginine (QKLCQRPSRTWSGVCGNNNACKNQCIRLEKARHGSCNYVFPAHKCICYFPC; listed as Raphanus sativus) : value?
Solution: 3.3

Exercise: F culmorum / IC50 SMF+ / yRs-AFP2/A42R (QKLCQRPSGTWSGVCGNNNACKNQCIRLEKARHGSCNYVFPRHKCICYFPC; listed as Raphanus sativus) : value?
Solution: 18.0

Exercise: F culmorum / IC50 SMF+ / yRs-AFP2/S12R (QKLCQRPSGTWRGVCGNNNACKNQCIRLEKARHGSCNYVFPAHKCICYFPC; listed as Raphanus sativus) : value?
Solution: 20.0

Exercise: F culmorum / IC50 SMF+ / yRs-AFP2/V39R: yeast-expressed Rs-AFP2 isoform, position 39 valine to arginine (QKLCQRPSGTWSGVCGNNNACKNQCIRLEKARHGSCNYRFPAHKCICYFPC; listed as Raphanus sativus) : value?
Solution: 3.2

###

# Test system: F culmorum
# assay remarks: Specific antifungal activity of Rs-AFP2 isoforms in SMF− and SMF+ media
# Type: cell-based
# Design: unit not given here
# assay conditions: 72 hours growth; high salt medium (1 mM CaCl2, 50 mM KCl); triplicate
readout kind: IC50 SMF+
Lab note: record the figure alone, no unit after it.

Exercise: Look up IC50 SMF+ for this substance: yRs-AFP2/I26R (QKLCQRPSGTWSGVCGNNNACKNQCRRLEKARHGSCNYVFPAHKCICYFPC; listed as Raphanus sativus)
Solution: 9.6

Exercise: Look up IC50 SMF+ for this substance: yRs-AFP2: yeast-expressed wild-type Rs-AFP2 (QKLCQRPSGTWSGVCGNNNACKNQCIRLEKARHGSCNYVFPAHKCICYFPC; listed as Raphanus sativus) [reference compound]
Solution: 8.5

###

# System: F culmorum
# assay remarks: Specific antifungal activity of Rs-AFP2 isoforms in SMF− and SMF+ media
# Format: cell-based
# assay conditions: 1/IC50 of mutant divided by that of yRs-AFP2 x 100; 48 hour incubation; SMF with 1 mM CaCl2 and 50 mM KCl; preliminary tests
readout kind: RELATIVE SPECIFIC ACTIVITY (%) IN MEDIUM SMF+
Output spec: scalar in %, unitless text.

Exercise: Look up RELATIVE SPECIFIC ACTIVITY (%) IN MEDIUM SMF+ for this substance: yRs-AFP2: yeast-expressed wild-type Rs-AFP2 (QKLCQRPSGTWSGVCGNNNACKNQCIRLEKARHGSCNYVFPAHKCICYFPC; listed as Raphanus sativus) [reference compound]
Solution: 100

Exercise: Look up RELATIVE SPECIFIC ACTIVITY (%) IN MEDIUM SMF+ for this substance: yRs-AFP2/G16M (QKLCQRPSGTWSGVCMNNNACKNQCIRLEKARHGSCNYVFPAHKCICYFPC; listed as Raphanus sativus)
Solution: 114

Exercise: Look up RELATIVE SPECIFIC ACTIVITY (%) IN MEDIUM SMF+ for this substance: yRs-AFP2/V39R: yeast-expressed Rs-AFP2 isoform, position 39 valine to arginine (QKLCQRPSGTWSGVCGNNNACKNQCIRLEKARHGSCNYRFPAHKCICYFPC; listed as Raphanus sativus)
Solution: 114

Exercise: Look up RELATIVE SPECIFIC ACTIVITY (%) IN MEDIUM SMF+ for this substance: yRs-AFP2/F40M (QKLCQRPSGTWSGVCGNNNACKNQCIRLEKARHGSCNYVMPAHKCICYFPC; listed as Raphanus sativus)
Solution: 23

Exercise: Look up RELATIVE SPECIFIC ACTIVITY (%) IN MEDIUM SMF+ for this substance: yRs-AFP2/P7R: yeast-expressed Rs-AFP2 isoform, P7 replaced by arginine (QKLCQRRSGTWSGVCGNNNACKNQCIRLEKARHGSCNYVFPAHKCICYFPC; listed as Raphanus sativus)
Solution: 84

Exercise: Look up RELATIVE SPECIFIC ACTIVITY (%) IN MEDIUM SMF+ for this substance: yRs-AFP2/N37R (QKLCQRPSGTWSGVCGNNNACKNQCIRLEKARHGSCRYVFPAHKCICYFPC; listed as Raphanus sativus)
Solution: 80

Exercise: Look up RELATIVE SPECIFIC ACTIVITY (%) IN MEDIUM SMF+ for this substance: yRs-AFP2/Q5M: yeast-expressed Rs-AFP2 isoform, position 5 glutamine to methionine (QKLCMRPSGTWSGVCGNNNACKNQCIRLEKARHGSCNYVFPAHKCICYFPC; listed as Raphanus sativus)
Solution: 100
